- Test system: SK-MEL-2 melanoma
- TEST_DESCRIPTION: NCI-60 one-dose screen, 48 h
- DETAILS: 10 µM unless noted
Compounds without any hit were thinned out: in the full panel of roughly 83,000, 20% have a hit. Calls of active or inactive are those of the source. The calls were made as follows: active = growth percent below 10; inactive = the rest.
Permitted responses: active, inactive

Example entries begin here.
Prompt line: Per the assay record, what outcome was assigned to C=C1C(=O)O[C@H]2[C@H]1CC/C(C(=O)Nc1ccc(OC)c(C(N)=O)c1O)=C\CC[C@@]1(C)O[C@@H]21 ?
Response line: inactive

Prompt line: Next compound up: COc1ccc(C(=O)Cn2cnc3c(Nc4cc(C(=O)Nc5ccc(N6CCN(CCO)CC6)cc5)ccc4C)ncnc32)cc1
Response line: inactive

Prompt line: Next compound up: COc1cc2c(cc1OCCCCC(=O)Nc1ccc(-c3nc4ccccc4s3)cc1)N=C[C@@H]1CCCN1C2=O
Response line: active

---
Prompt line: Per the assay record, what outcome was assigned to OC(COc1ccccc1Cl)CN1CCN(c2ccc(Cl)cc2)CC1 (configuration not stated) ?
Response line: inactive

Prompt line: Next compound up: O=C(Nc1ccc(-n2cc(-c3ccncc3)c(-c3ccc(O)c(Cl)c3)n2)cc1)c1ccc(Cl)c(Cl)c1
Response line: inactive

Prompt line: Next compound up: Cc1cc(Nc2ccc(Cl)c(Cl)c2)nc(N)n1
Response line: inactive
